- Test system: non-small cell lung cancer cell line H460
- experimental_details: In vitro human cancer cell line cytotoxicity (proliferation) assay in H460, CellTiter-Glo, 72 hours
- Type: cell-based
- cond: Homo sapiens, NCI-H460, 72 h, H460 cells, DMSO condition (no AKR1C3 inhibitor), read-out: CTG H460: Avg IC50 (nM) [Assay Condition: DMSO]
Kindly state IC50 for each of the entries shown.

What is its IC50 for non-small cell lung cancer cell line H460? Entry: CC(OP(=O)(N1CC1)N1CC1)c1cc(Oc2ccc(C(=O)N(C)C)cc2)c([N+](=O)[O-])cc1F (centres unmarked) [Example 8]
< 10 nM

Given the entry O=[N+]([O-])c1ccc2c(c1Oc1ccc(-c3ncc(F)cn3)cc1)CC[C@H]2OP(=O)(N1CC1)N1CC1 (single isomer, unassigned) [Example 266] , what IC50 was observed with non-small cell lung cancer cell line H460?
10 to 50 nM

Request - read-out IC50 | tested on non-small cell lung cancer cell line H460 | molecule O=[N+]([O-])c1ccc2c(c1Oc1cc(F)cc(-c3ncccn3)c1)CC[C@@H]2OP(=O)(N1CC1)N1CC1 [Example 356]
< 10 nM

non-small cell lung cancer cell line H460 / IC50 / CN1CCc2ccc(Oc3cc4c(cc3[N+](=O)[O-])OCCC4OP(=O)(N3CC3)N3CC3)cc2C1=O (centres unmarked) [Example 200] : value?
10 to 50 nM

Look up IC50 with non-small cell lung cancer cell line H460 for this molecule: O=C(c1ccc(Oc2cc3cc(COP(=O)(N4CC4)N4CC4)oc3cc2[N+](=O)[O-])cc1)N1CCOCC1 [Example 231]
< 10 nM

Fill in the recorded IC50 for this molecule, with non-small cell lung cancer cell line H460 as test system: O=[N+]([O-])c1ccc2c(c1Oc1cccc(C(F)(F)F)c1)CCC2OP(=O)(N1CC1)N1CC1 (centres unmarked) [Example 123]
< 10 nM

Which IC50 is reported with non-small cell lung cancer cell line H460 for this entry: O=[N+]([O-])c1ccc2c(c1Oc1cccc(-c3cccnc3)c1)CC[C@H]2OP(=O)(N1CC1)N1CC1 [Example 309] ?
10 to 50 nM

Which measured IC50 belongs to Cc1ccnn1-c1cc(Oc2c([N+](=O)[O-])ccc3c2CC[C@@H]3OP(=O)(N2CC2)N2CC2)ccc1F [Example 433] , tested on non-small cell lung cancer cell line H460?
< 10 nM

Param readout= IC50; system= non-small cell lung cancer cell line H460; entry= C[C@@H]1CN1P(=O)(COc1c(F)c(F)c(OCc2ccc([N+](=O)[O-])c(Oc3ccc(C(=O)N(C)C)cc3)c2)c(F)c1F)N1C[C@H]1C (some centres unmarked) [Example 15] ; returns value.
< 10 nM

Recorded IC50 for Cn1ccc2cc(Oc3c([N+](=O)[O-])ccc4c3CC[C@H]4OP(=O)(N3CC3)N3CC3)ccc21 [Example 386] with non-small cell lung cancer cell line H460, please?
< 10 nM

Request: IC50, test system non-small cell lung cancer cell line H460, entry O=C1COCCN1c1cccc(Oc2c([N+](=O)[O-])ccc3c2CCC3OP(=O)(N2CC2)N2CC2)c1 (centres unmarked) [Example 109]
10 to 50 nM

Notebook entry, non-small cell lung cancer cell line H460 assay: IC50 of CCOc1cc(Oc2c([N+](=O)[O-])ccc3c2CC[C@@H]3OP(=O)(N2CC2)N2CC2)ccc1F [Example 493] = ?
< 10 nM

// map C[C@H]1CN1P(=O)(OCc1c(F)c(F)c(OCc2ccc([N+](=O)[O-])c(Oc3cccc(C(=O)N(C)C)c3)c2)c(F)c1F)N1C[C@@H]1C (some centres unmarked) [Example 12] to recorded IC50 (system: non-small cell lung cancer cell line H460)
< 10 nM

Find IC50 (non-small cell lung cancer cell line H460) for the entry Cc1ccn(-c2cc(Oc3c([N+](=O)[O-])ccc4c3CC[C@@H]4OP(=O)(N3CC3)N3CC3)ccc2F)n1 [Example 439]
< 10 nM

Lab note: need IC50 for O=[N+]([O-])c1ccc2c(c1Oc1ccc(-c3ccccc3)nc1)CCC2OP(=O)(N1CC1)N1CC1 (centres unmarked) [Example 50] on non-small cell lung cancer cell line H460, anyone have it?
< 10 nM

Notebook entry, non-small cell lung cancer cell line H460 assay: IC50 of C[C@@H]1CN1P(=O)(OCc1c(F)c(F)c(OCc2ccc([N+](=O)[O-])c(Oc3cccc(C(=O)N(C)C)c3)c2)c(F)c1F)N1C[C@H]1C (some centres unmarked) [Example 13] = ?
< 10 nM

Test system non-small cell lung cancer cell line H460; read-out IC50; what value for O=[N+]([O-])c1ccc2c(c1Oc1ccc(-c3ccc(O)cn3)cc1)CC[C@@H]2OP(=O)(N1CC1)N1CC1 [Example 290] ?
< 10 nM
